Listed here: items and their measured pIC50.
System: KP4
Assay: Cell viability assay (CellTiter Glo), pancreatic ductal adenocarcinoma KP4
Assay type: cell-based, human
Details: Homo sapiens, KP-4, Cell Line KP4; read-out: IC50
Experimental: Cell viability assay was performed to assess the potency of the compounds in human cancer cell lines KP4 (pancreatic ductal adenocarcinoma), MiaPaCa-2 (pancreatic carcinoma), AsPC-1 (pancreatic adenocarcinoma, ascites), 143B (osteosarcoma), and SJSA-1 (osteosarcoma). […] After 96 hours of incubation, 50 μL of CellTiter Glo reagent (Promega) was added to each well and luminescence was measured after 10 minutes using EnVision (PerkinElmer). […] IC50, relative IC50, or % of top inhibition was calculated. […]
pIC50: −log10 of the molar value.
Metric name: pIC50

Sample smiles: C[C@H]1Cc2c([nH]c3ccccc23)[C@H](c2ccc(N3CCOCC3)cc2)N1C(=O)/C=C/C(F)(F)F
Result: < 4.52

Sample smiles: C=CC(=O)N1[C@@H](c2ccc(N3CCOCC3)cc2)c2[nH]c3ccccc3c2C[C@@H]1C
Result: < 5.00

Sample smiles: C/C=C/C(=O)N1[C@@H](c2ccc(N3CCOCC3)cc2)c2[nH]c3ccccc3c2C[C@@H]1C
Result: < 4.52

Sample smiles: C=C(C)C(=O)N1[C@@H](c2ccc(N3CCOCC3)cc2)c2[nH]c3ccccc3c2C[C@@H]1C
Result: < 4.52

---

assay: Whole blood stability, mouse; type: in vitro ADME; conditions: 30 min
Metric name: Whole Blood Stability % Remaining at 37° C. Mouse

Compound: COC(=O)[C@H]1Cc2c([nH]c3ccccc23)[C@H](c2ccc(C(=O)N[C@]34CC5C[C@H](C[C@H](C5)C3)C4)cc2)N1C(=O)CCl [Compound 28]
Result: 78.3%
--
Compound: COc1ccc2[nH]c3c(c2c1)C[C@H](C)N(C(=O)CCl)[C@H]3c1ccc(N2CCOCC2)cc1 [Compound 121]
Result: 84.3%
--
Compound: CN(C)C(=O)[C@H]1Cc2c([nH]c3ccccc23)[C@H](c2ccc(C(=O)N(CCC(=O)OC(C)(C)C)C(C)(C)C)cc2)N1C(=O)CCl [Compound 54]
Result: 42.9%

---

Listed here: items and their measured IC50.
tested on: SJSA-1; test: Cell proliferation (Alamar Blue) assay, SJSA-1 osteosarcoma, with/without ferrostatin; type: cell-based, human; conditions: Homo sapiens, SJSA-1, Cell Line SJSA-1; read-out: IC50

Compound: C[C@H]1Cc2c([nH]c3ccccc23)C(c2ccc(-n3ccnc3)cc2)N1C(=O)CCl (stereo partly shown)
Measurement target: SJSA-1
Unit descriptor: nM
Value qualifier: >
IC50: 10000
//
Compound: C[C@H]1Cc2c([nH]c3ccccc23)[C@H](c2cnn(C3CCOCC3)c2)N1C(=O)CCl
Measurement target: SJSA-1
Unit descriptor: nM
Value qualifier: =
IC50: 1400
//
Compound: C#CC(=O)N1[C@@H](CCCC)Cc2c([nH]c3ccccc23)[C@@H]1c1ccc(NC23CC4CC(CC(C4)C2)C3)cc1
Measurement target: SJSA-1
Unit descriptor: nM
Value qualifier: =
IC50: 8
//
Compound: CCCC[C@H]1Cc2c([nH]c3ccccc23)[C@H](c2ccc(NC34CC5CC(CC(C5)C3)C4)cc2)N1C(=O)CCl
Measurement target: SJSA-1
Unit descriptor: nM
Value qualifier: =
IC50: 2
//
Compound: C[C@H]1Cc2c([nH]c3ccc(Cl)cc23)[C@H](c2ccc(S(=O)(=O)NC3CC3)cc2F)N1C(=O)CCl
Measurement target: SJSA-1
Unit descriptor: nM
Value qualifier: =
IC50: 23
//
Compound: C#CC(=O)N1[C@@H](CCCC)Cc2c([nH]c3ccccc23)[C@@H]1C12CC(F)(C1)C2
Measurement target: SJSA-1
Unit descriptor: nM
Value qualifier: =
IC50: 108
//
Compound: C#CC(=O)N1[C@@H](c2ccc(C#N)cc2)c2[nH]c3ccccc3c2C[C@@H]1C
Measurement target: SJSA-1
Unit descriptor: nM
Value qualifier: =
IC50: 265
//
Compound: COC(=O)[C@H]1Cc2c([nH]c3ccccc23)[C@@H](c2ccc(C(=O)NC34CC5CC(CC(C5)C3)C4)cc2)N1C(=O)CCl
Measurement target: SJSA-1
Unit descriptor: nM
Value qualifier: =
IC50: 2700
//
Compound: C[C@H]1Cc2c([nH]c3ccccc23)[C@@H](c2ccc(N3CCOCC3)cc2)N1C(=O)CCl
Measurement target: SJSA-1
Unit descriptor: nM
Value qualifier: =
IC50: 4000
//
Compound: C[C@H]1Cc2c([nH]c3ccccc23)[C@H](c2ccc(C(=O)NC3CCC3)nc2)N1C(=O)CCl
Measurement target: SJSA-1
Unit descriptor: nM
Value qualifier: =
IC50: 30
//
Compound: C#CC(=O)N1[C@@H](CCCC)Cc2c([nH]c3c(F)cc(F)cc23)[C@@H]1c1ccc(F)cc1
Measurement target: SJSA-1
Unit descriptor: nM
Value qualifier: =
IC50: 42.2
//
Compound: C=C(C(=O)N1[C@@H](CCCC)Cc2c([nH]c3ccccc23)[C@@H]1c1ccc(F)cc1)C(F)(F)F
Measurement target: SJSA-1
Unit descriptor: nM
Value qualifier: =
IC50: 16200
//
Compound: CCCC[C@H]1Cc2c([nH]c3ccc(F)cc23)[C@H](c2ccc(S(=O)(=O)NC3CCC3)cc2)N1C(=O)CCl
Measurement target: SJSA-1
Unit descriptor: nM
Value qualifier: =
IC50: 4
//
Compound: C#CC(=O)N1[C@@H](c2ccc(C(=O)NC3CC3)cc2)c2ccc(OC)cc2C[C@@H]1C
Measurement target: SJSA-1
Unit descriptor: nM
Value qualifier: =
IC50: 1000
//
Compound: CC1CN(c2ccc([C@H]3c4[nH]c5ccccc5c4C[C@H](C)N3C(=O)CCl)cc2)CC(C)O1 (stereo partly shown)
Measurement target: SJSA-1
Unit descriptor: nM
Value qualifier: =
IC50: 11
//
Compound: C[C@H]1Cc2c([nH]c3ccccc23)[C@@H](c2ccc(N3CCOCC3)cc2F)N1C(=O)CCl
Measurement target: SJSA-1
Unit descriptor: nM
Value qualifier: =
IC50: 4400
//
Compound: C[C@H]1Cc2c([nH]c3ccccc23)[C@H](c2ccc(C(=O)Nc3ccccn3)cc2)N1C(=O)CCl (single isomer, unassigned)
Measurement target: SJSA-1
Unit descriptor: nM
Value qualifier: =
IC50: 36
//
Compound: C[C@H]1Cc2c([nH]c3ccccc23)[C@H](c2ccc(N3CCN(C)CC3)cc2)N1C(=O)CCl
Measurement target: SJSA-1
Unit descriptor: nM
Value qualifier: =
IC50: 147
//
Compound: C[C@H]1Cc2c([nH]c3ccccc23)[C@@H](c2ccc(C(=O)Nc3ccccn3)cc2)N1C(=O)CCl (single isomer, unassigned)
Measurement target: SJSA-1
Unit descriptor: nM
Value qualifier: =
IC50: 1300

---

test system: SJSA-1; assay: Cell proliferation (Alamar Blue) assay, SJSA-1 osteosarcoma, with/without ferrostatin; type: cell-based, human; settings: Homo sapiens, SJSA-1, Cell Line SJSA-1; read-out: IC50
pIC50: −log10 of the molar value.

Compound: C[C@H]1Cc2c([nH]c3ccccc23)[C@H](c2ccc(NC34CC5CC(CC(C5)C3)C4)cc2)N1C(=O)CCl
Measurement target: SJSA-1
Value qualifier: =
pIC50: 8.10
//
Compound: C#CC(=O)N1[C@@H](C)Cc2c([nH]c3ccccc23)[C@@H]1C12CC(F)(C1)C2
Measurement target: SJSA-1
Value qualifier: =
pIC50: 6.18
//
Compound: C[C@H]1Cc2c([nH]c3ccccc23)[C@H](c2ccc(N3CCOCC3)nc2)N1C(=O)CCl
Measurement target: SJSA-1
Value qualifier: =
pIC50: 7.03
//
Compound: C#CC(=O)N1[C@@H](c2ccc(OC)cc2)c2[nH]c3ccccc3c2C[C@@H]1C
Measurement target: SJSA-1
Value qualifier: =
pIC50: 6.76
//
Compound: C[C@H]1Cc2c([nH]c3ccccc23)[C@@H](c2cnn(C3CCOCC3)c2)N1C(=O)CCl
Measurement target: SJSA-1
Value qualifier: <
pIC50: 5.00
//
Compound: C#CC(=O)N1[C@@H](c2ccc(F)cc2)c2[nH]c3ccc(OC)cc3c2C[C@@H]1C
Measurement target: SJSA-1
Value qualifier: =
pIC50: 6.36
//
Compound: C[C@H]1Cc2c([nH]c3ccccc23)[C@@H](c2ccc(S(=O)(=O)NC3CC3)cc2F)N1C(=O)CCl (single isomer, unassigned)
Measurement target: SJSA-1
Value qualifier: =
pIC50: 5.37
//
Compound: C[C@H]1Cc2c([nH]c3ccccc23)[C@H](c2ccncc2)N1C(=O)CCl
Measurement target: SJSA-1
Value qualifier: =
pIC50: 6.60
//
Compound: C#CC(=O)N1[C@@H](c2cc(F)cc(F)c2)c2[nH]c3ccccc3c2C[C@@H]1C
Measurement target: SJSA-1
Value qualifier: =
pIC50: 7.05
